Assignment: determine reported composite z-score for the given molecules.
# ASSAY: small-molecule microarray binders of probe aCHRDL2, primary screen, biochemical, biotinylated probe, 635/667 nm fluorescence (AID 1100)
# CONDITION_DESCRIPTION: higher = more signal
// print number alone

Query string: Retrieve composite z-score measured for COCCOC(=O)N1C(=O)[C@@]2(c3cc(C#CCC(C(=O)OC)C(=O)OC)ccc31)[C@H](C(N)=O)[C@H]1C(=O)O[C@H](c3ccccc3)[C@H](c3ccccc3)N1[C@@H]2c1ccccc1OCCO and print it.
Result string: -0.129

Query string: Supply composite z-score value. Item: COCCOC(=O)N1C(=O)[C@@]2(c3cc(C#CC4=CCCCC4)ccc31)[C@H](C(=O)N1CCCCCCC1)[C@H]1C(=O)O[C@H](c3ccccc3)[C@H](c3ccccc3)N1[C@@H]2c1ccccc1OCCO
Result string: 1.14

Query string: Note composite z-score for the molecule shown: CC1C2C(CCCO)=CC(C3C(=O)N(C)C(=O)C23)N1Cc1cccc(OC(F)(F)F)c1 (stereo unspecified)
Result string: 0.44

Query string: Respond only with composite z-score recorded for COC(=O)[C@@]1(Cc2ccc(F)cc2)[C@H]2c3cc(C(=O)N4CCCC4)n(CCSCCO)c3C[C@H]2CN1C(=O)c1ccccc1
Result string: 1.22

Query string: Please report composite z-score for the following molecule: CC[C@@H](O[Si](C#C[Si](C(C)C)(C(C)C)C(C)C)(C(C)C)C(C)C)c1cn([C@H](C)c2ccccc2)nn1
Result string: -0.328

Query string: Give recorded composite z-score. COCCCNC(=O)[C@@]1(Cc2ccccc2I)c2ccccc2C(=O)N(C2CCCCC2)[C@H]1c1ccc(CO)cc1
Result string: 0.445

###

# ASSAY: small-molecule microarray binders of probe aXIP, primary screen, biochemical, NeuroSMM set, 635/667 nm fluorescence (AID 1119);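 further: probe is the protein aXip251-270 applied at 1 µg/mL to compound-printed slides; binding of probe to printed compounds measured as 667 nm fluorescence plus signal to noise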
# CONDITION_DESCRIPTION: higher = more signal, called active from +8 up or from −8 down
Note to self: class labels come from recorded composite Z-score, ranges listed here: low band = under 0.08, middle band = from 0.08 up to 0.4, high band = 0.4 and over

Query string: Into which category would you place Cc1ccc(S[C@]2(C(=O)NC(C)C)CC(=O)N(Cc3ccccc3)[C@@H]2c2ccc(CO)cc2I)cc1 ?
Result string: low band

Query string: Lab note: sort C=CCN1C(=O)[C@@]2(O[C@@H](CCO)[C@H]([Si](C)(C)c3ccc(OC)cc3)[C@H]2C)c2cc(N3CCCCC3=O)ccc21 into the matching composite Z-score band.
Result string: high band

Query string: Determine which band this compound sits in: CN(C)CCCCCCNC(=O)[C@@H]1C[C@@H]2C(=O)N[C@@H](CCCC[N+](C)(C)C)C(=O)N2[C@@H]1c1cccc(OCCO)c1
Result string: high band

Query string: Bin this entry: COc1ccc(CCNC(=O)[C@@]2(C)c3ccccc3C(=O)N(Cc3ccc(OC(F)(F)F)cc3)[C@H]2c2ccc(CO)cc2)cc1
Result string: high band

Query string: Please indicate the class for CC(C)N1C(=O)[C@@]2(Cc3ccccc31)c1ccccc1C(=O)N(Cc1ccccc1)[C@H]2c1ccc(CO)cc1 based on its composite Z-score.
Result string: low band

Query string: Entry Cc1ccc(S[C@]2(C(=O)NC3CC3)CC(=O)N(C3Cc4ccccc4C3)[C@@H]2c2ccc(CO)cc2I)cc1 belongs to which category?
Result string: low band

Query string: State the class of the compound shown: CC(C)c1ccc(NN2C(C(O)C3CCCCC3)C=CC3C(=O)N(c4ccccc4)C(=O)C32)cc1 (centres undefined)
Result string: high band

Query string: Hi there! Could you help me figure out the category for Cc1ccc(S[C@]2(C(=O)NC(C)C)CC(=O)N(Cc3ccccc3)[C@@H]2c2ccc(CO)cc2)cc1 please?
Result string: middle band

Query string: For the record COc1ccc(C(=O)Nc2cccc(CN3C(=O)[C@]4(O[C@H](CC(=O)N(CCO)Cc5ccccc5)[C@@H]([Si](C)(C)c5ccc(OC)cc5)[C@@H]4C)c4ccccc43)c2)cc1 , report the class its composite Z-score corresponds to.
Result string: middle band

Query string: Which class is correct for the following compound? COc1ccc([Si](C)(C)[C@H]2[C@H](CC(=O)N(CCO)Cc3ccccc3)O[C@@]3(C(=O)N(c4ccccc4)c4ccccc43)[C@@H]2C)cc1
Result string: middle band

Query string: For this compound, which bin applies? COC(=O)C(CC#Cc1ccc2c(c1)[C@]1(C(=O)N2)[C@H](C(=O)N2CCCCCCC2)[C@H]2C(=O)O[C@H](c3ccccc3)[C@H](c3ccccc3)N2[C@@H]1c1ccc(OCCO)cc1)C(=O)OC
Result string: high band

Query string: Textbook exercise: identify the category of the compound given here, C=C(CCCC)/C(=C/C[C@@H](OC(C)=O)c1cccc(OCCO)c1)c1cc(C(=O)OC)ccc1OC , according to its measured value.
Result string: middle band

Query string: Band for the recorded composite Z-score of O=C1C[C@@](C(=O)NCC(F)(F)F)(c2ccc([N+](=O)[O-])cc2)[C@@H](c2ccc(CO)cc2I)N1CC12CC3CC(CC(C3)C1)C2 ?
Result string: middle band

Query string: Could you place C=CCNC(=O)[C@H]1[C@@H]2C(=O)O[C@@H](c3ccccc3)[C@@H](c3ccccc3)N2[C@@H](c2ccc(O)cc2)[C@]12C(=O)Nc1ccccc12 in its proper category? Many thanks.
Result string: low band
